Molecular target: human V2 receptor (Homo sapiens)
Construct: expressed in transfected cells; host or cells: CHO K1 (ATCC) expressing firefly luciferase under a CRE-responsive promoter
Sequence (P30518 whole entry): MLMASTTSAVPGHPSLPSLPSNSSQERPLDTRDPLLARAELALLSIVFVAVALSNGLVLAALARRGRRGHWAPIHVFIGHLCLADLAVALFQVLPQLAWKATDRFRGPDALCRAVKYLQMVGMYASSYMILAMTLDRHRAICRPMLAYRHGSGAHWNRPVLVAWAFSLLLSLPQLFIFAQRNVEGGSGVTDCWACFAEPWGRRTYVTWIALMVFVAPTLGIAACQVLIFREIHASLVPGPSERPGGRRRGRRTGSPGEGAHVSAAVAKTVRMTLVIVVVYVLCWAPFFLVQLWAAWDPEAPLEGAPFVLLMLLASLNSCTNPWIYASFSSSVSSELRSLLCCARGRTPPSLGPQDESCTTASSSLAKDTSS
Test: Cellular in vitro assay for determining vasopressin receptor activity, V2 receptor cell line (CRE-luciferase)
Type: cell-based
Details: CHO cell line transfected with the human V2 receptor; agonist [Arg8]-vasopressin at EC50 concentration; read-out: IC50 hV2
property: pIC50
Answer as the number alone; pIC50 is minus log10 of concentration in mol/L.

Check out these entries, answers already filled in.
INSERT INTO assay_data (compound, obs_value) VALUES
  ('O=C(CNc1nc(Cn2nc(-c3ccc(Cl)cc3)n(C[C@H](O)C(F)(F)F)c2=O)nn1-c1ccccc1Cl)NCC(F)(F)F', 8.14),
  ('CC(C)(O)CNc1nc(Cn2nc(-c3ccc(Cl)cc3)n(C[C@H](O)C(F)(F)F)c2=O)nn1-c1ccccc1Cl', 8.19);

# input State, for human V2 receptor (Homo sapiens), measured pIC50 of the compound listed here: O=c1n(Cc2nc(N3CC4(COC4)C3)n(-c3ccccc3Cl)n2)nc(-c2ccc(Cl)cc2)n1C[C@H](O)C(F)(F)F
# output 8.18

# input State, for human V2 receptor (Homo sapiens), measured pIC50 of the compound listed here: O=CN1CCC(Nc2nc(Cn3nc(-c4ccc(Cl)cc4)n(C[C@H](O)C(F)(F)F)c3=O)nn2-c2ccccc2Cl)C1 (mixture of isomers)
# output 8.13
